target_or_test_system: BCL6 (Homo sapiens, UniProt P41182)
Construct: endogenous in cells; host or cells: T47D breast cancer epithelial cells
protocol_description: Immunofluorescence protocol for high content imaging of BCL6 (degradation) in T47D cells, 3 days compound treatment
Assay type: cell-based
measurement_context: T47D cells, 3 days compound treatment, read-out: Mean Dmax (%)** category
Procedure: Immunofluorescence Protocol for High Content Imaging of BCL6 T47D cells were seeded in 100 μl volume of RPMI1640-10% FBS in a 96-well black/clear bottom plates for adherent lines (Corning #3904). Day 1. T47D breast cancer epithelial cells were seeded at a density so that confluence is ˜70-90% at endpoint. Cells were seeded at 7K/0.1 ml/well the morning prior to the addition of exemplary bifunctional degradation compounds. Day 2. […] Plates were equilibrated to room temperature prior to reading. […]
Structures can show the parent of a compound that is named as a salt.
Documented Dmax across a set of molecules
measured_attribute: Dmax

• CNC(=O)COc1cc2cc(Nc3nc(N4CCN(C[C@H]5C[C@H](N6CCC(c7cccc8c7C(=O)N(C7CCC(=O)NC7=O)C8=O)CC6)C5)CC4)ncc3Cl)ccc2n(C(C)C)c1=O (some centres unmarked) = < 50%
• CNC(=O)COc1cc2cc(Nc3nc(N4CCC(O[C@H]5C[C@H](N6CCC(c7cc(F)c8c(c7)CN(C7CCC(=O)NC7=O)C8=O)CC6)C5)CC4)ncc3Cl)ccc2n(C(C)C)c1=O (some centres unmarked) = ≥ 70%
• CNC(=O)COc1cc2cc(Nc3nc(N4CCC(O[C@H]5C[C@H](N6CCN(c7ccc8c(c7F)CN(C7CCC(=O)NC7=O)C8=O)CC6)C5)CC4)ncc3Cl)ccc2n(C(C)C)c1=O (some centres unmarked) [Compound 164, formate] = ≥ 70%
• CNC(=O)COc1cc2cc(Nc3nc(N4CCC(CN5CCC6(CC5)CN(c5ccc7c(c5)C(=O)N(C5CCC(=O)NC5=O)C7=O)C6)CC4)ncc3Cl)ccc2n(C2CC2)c1=O (centres unmarked) = 50 to 70%
• CNC(=O)COc1cc2cc(Nc3nc(N4CCC5(CCN(CC6(F)CCN(c7ccc(F)c8c7C(=O)N(C7CCC(=O)NC7=O)C8)CC6)CC5)CC4)ncc3Cl)ccc2n(C(C)C)c1=O (centres unmarked) = ≥ 70%
